system: chimeric Caspase-9 polypeptide; assay: Caspase mutant classes and basal activity (Table 3); type: cell-based, human; conditions: class heading of Table 3
Sequence (as listed by the source, change not shown): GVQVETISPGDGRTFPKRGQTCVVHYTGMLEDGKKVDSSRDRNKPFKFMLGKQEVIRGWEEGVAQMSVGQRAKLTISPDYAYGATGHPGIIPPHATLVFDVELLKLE

[
  {
    "Molecule": "N405Q-S196D (protein) GFGDVGALESLRGNADLAYILSMEPCGHCLIINNVNFCRESGLRTRTGSNIDCEKLRRRFSDLHFMVEVKGDLTAKKMVLALLELAQQDHGALDCCVVVILSHGCQASHLQFPGAVYGTDGCPVSVEKIVNIFNGTSCPSLGGKPKLFFIQACGGEQKDHGFEVASTSPEDESPGSNPEPDATPFQEGLRTFDQLDAISSLPTPSDIFVSYSTFPGFVSWRDPKSGSWYVETLDDIFEQWAHSEDLQSLLLRVANAVSVKGIYKQMPGCFQFLRKKLFFKTS",
    "Basal Activity": "Decreased"
  },
  {
    "Molecule": "D330G (protein) GFGDVGALESLRGNADLAYILSMEPCGHCLIINNVNFCRESGLRTRTGSNIDCEKLRRRFSSLHFMVEVKGDLTAKKMVLALLELAQQDHGALDCCVVVILSHGCQASHLQFPGAVYGTDGCPVSVEKIVNIFNGTSCPSLGGKPKLFFIQACGGEQKDHGFEVASTSPEDESPGSNPEPDATPFQEGLRTFDQLGAISSLPTPSDIFVSYSTFPGFVSWRDPKSGSWYVETLDDIFEQWAHSEDLQSLLLRVANAVSVKGIYKQMPGCFNFLRKKLFFKTS",
    "Basal Activity": "Decreased"
  },
  {
    "Molecule": "D330A-Y153A (protein) GFGDVGALESLRGNADLAAILSMEPCGHCLIINNVNFCRESGLRTRTGSNIDCEKLRRRFSSLHFMVEVKGDLTAKKMVLALLELAQQDHGALDCCVVVILSHGCQASHLQFPGAVYGTDGCPVSVEKIVNIFNGTSCPSLGGKPKLFFIQACGGEQKDHGFEVASTSPEDESPGSNPEPDATPFQEGLRTFDQLAAISSLPTPSDIFVSYSTFPGFVSWRDPKSGSWYVETLDDIFEQWAHSEDLQSLLLRVANAVSVKGIYKQMPGCFNFLRKKLFFKTS",
    "Basal Activity": "dead"
  },
  {
    "Molecule": "D330A-S144D (protein) GFGDVGALEDLRGNADLAYILSMEPCGHCLIINNVNFCRESGLRTRTGSNIDCEKLRRRFSSLHFMVEVKGDLTAKKMVLALLELAQQDHGALDCCVVVILSHGCQASHLQFPGAVYGTDGCPVSVEKIVNIFNGTSCPSLGGKPKLFFIQACGGEQKDHGFEVASTSPEDESPGSNPEPDATPFQEGLRTFDQLAAISSLPTPSDIFVSYSTFPGFVSWRDPKSGSWYVETLDDIFEQWAHSEDLQSLLLRVANAVSVKGIYKQMPGCFNFLRKKLFFKTS",
    "Basal Activity": "Decreased"
  }
]
